Target: ComR from Streptococcus thermophilus LMD-9 (ComR-StreptagII, wild type) (Streptococcus thermophilus LMD-9)
Test: ITC; peptide 500 μM in the syringe, ComR 50 μM in the cell; 20°C; 20 mM Tris-HCl pH 8.0, 150 mM NaCl, 1 mM EDTA; one-binding-site model; apparent KD (peptide binding and dimerization not told apart)
observationType: Kd (nM)
Quick reminder: number only, in nM, skip the unit.

Problem: Quick one: Kd for LPYFAGCL [XIP octapeptide (ComS 17-24, LPYFAGCL) from Streptococcus thermophilus LMD-9] ?
Solution: 10
